The measurements presented in this section are drawn from patent US20060079453A1.

study.system: HLA-DR DRB4*0101 (DR53) (Homo sapiens, UniProt P01903+P13762, G164S)
measurement.description: biochemical
Assay type: binding
settings: DRB4 *0101
No end group written: not given here.
Please respond with reported IC50 for every item in the list.
# value in nM; strip the unit string

Consider the sequence VEALYLVCGERGFLY and give its measured IC50.
19

Tell me the measured IC50 of RTITADTFRKLFRVY , please.
1560

Request the reported IC50 associated with YGRILHYLKAKEDSH [YORILHYLKAKBDSH]
140

Any idea what its IC50 is? The sequence is LYYLFNQHIKKELYH
1090

For VEALYLVTGERGFFY , what is its reported IC50?
13

IC50 lookup needed for ISLLLIQSWLEPVQF , thanks.
2.5

Name the recorded IC50 for AVTIYEMLQNIFAIF .
1120

Data request, read-out IC50, for FTRGKRMSSLHLKRY
2030

Dear colleague, I am looking for the recorded IC50 of the following sequence: PVIKNSIKLRL
198

What value of IC50 has been reported for the following sequence? SAFLESQSMNKIGDD
302

Endpoint output: IC50 of RLFDNASLRAHRLHQ . Value?
3210

Find the recorded IC50 belonging to IRNLALQTLP and report it.
3

Request the reported IC50 associated with GQRVPVSHSFPHPLY
9860

Please give the measured IC50 for this sequence: YYDYSVYGATLESIT
32400

# lookup: IC50 of FVNQHLCGSDLVEAL [FVNQHLCGSDLVEAL]
24500

Value lookup for IC50; key = GSHLVEALYLVCGER
372

Value lookup for IC50; key = LHKLQTYPRTNTGSG
22900

For GKVFRGNKVKNAQLA , what is its reported IC50?
7880

For the sequence shown here, DFEVFFQRLGIASGR , give the reported IC50.
4.2

Any idea what its IC50 is? The sequence is VYDFAFADLTVVYRE
10700

Data request, read-out IC50, for RMSSLHLKRYYGRIL
2260

Entry YLVTGERGFFYTPKT : reported IC50 = ?
20700

Which IC50 is reported for this sequence? LGFLQRSSNCQSQKL
124

Please report the recorded IC50 for AYVLLSEKKISSIQS .
902

For the sequence shown here, PEEFLRPRSLQCVSL , give the reported IC50.
117

Look at this sequence and give its reported IC50. YNFACTELKLVYRDD
12900

What does the data say about its IC50? Entry: NLALQTLPAMCNVY
27

Would you mind telling me what IC50 value was observed for PQPFKPQQPYPQ ?
19

Which IC50 value is on record for PQPFRPQQPYKQ ?
35

Which IC50 value belongs to MNALRRLPVICSFLV ?
5.7

IC50 lookup needed for CKFVVQLDIQSTKED [CKFVVQLDIQSTKED] , thanks.
301

What does the data say about its IC50? Entry: VNFYAWKRMEVGQQA
1490

For TCVLGKLSQELHKLQ , what is its reported IC50?
163

Look up IC50: VLDLYPEPTDLYCYE
18

Give its IC50 value. Item: QTQKLLWQLNGRLEY
88

Which IC50 reading was recorded for the sequence ICLLLIQSWLEPVQF ?
49

For NSLVYGASDSNIYDL , what is its reported IC50?
3290

Look at this sequence and give its reported IC50. LFRVYSNFLRGKLKL
2330

Look up IC50 for this sequence: NVNLQKQLLTNHLIN [NVNLQKQLLTNHLIN]
354

# input sequence: AKSTWYGKPTGAGPKDNGGA ; wanted: its IC50
10000

May I ask what IC50 has been recorded for DMDKVETFLRIVQTR ?
190

Name the recorded IC50 for PKPFRPQQPYPQ .
3.4

Give the measured IC50 of KATLQDIVLHLEPQN .
159

Given RETLQEIVLHLEPQN , state its recorded IC50.
95

Given QDVVLELTPQTEIDL , state its recorded IC50.
1720

Dear colleague, I am looking for the recorded IC50 of the following sequence: DIRILQELLMGSFGI
16

Entry APPRLITDSRVLERY has what IC50?
2260

Which IC50 value belongs to LGQQQPFPPQ ?
151

Which IC50 is reported for this sequence? PQPFRKQQPYPQ
22

Record request: IC50 value, item GEALSTLVLNRLKVG
1020
